experimental.target: SARS-COV-2 3CLpro/Mpro protease (Severe acute respiratory syndrome coronavirus 2 (2019-nCoV) (SARS-CoV-2), UniProt P0DTD1)
test.details: Inhibitory effect on SARS-COV-2 3CLpro/Mpro protease by fluorescence resonance energy transfer
Assay type: biochemical
condition.set: activity intervals A-D, read-out: IC50 (nM), Inhibition on SARS-CoV-2 3CLpro/Mpro protease
Exercise: for every item that follows, state its recorded IC50.

Note to self: IC50 recorded for CNc1cncc(C(=O)N2CCC[C@@H](Nc3c(C(=O)N4CCN(CCOC)[C@@H](C)C4)cc(Br)cc3[N+](=O)[O-])C2)c1 [Example 247] was 10 to 50 nM

Note to self: IC50 recorded for CNc1cncc(C(=O)N2CCC[C@@H](Nc3c(C(=O)N4CC(F)(F)OC(F)(F)C4)cc(Br)cc3[N+](=O)[O-])C2)c1 [Example 368] was 10 to 50 nM

Note to self: IC50 recorded for O=C(c1cc(Br)cc([N+](=O)[O-])c1N[C@@H]1CCCN(C(=O)[C@H]2CNCC(F)(F)C2)C1)N1CC2CCC(C1)O2 [Example 332] was 10 to 50 nM

Note to self: IC50 recorded for CNc1cncc(C(=O)N2CCC[C@@H](Nc3c(C(=O)N4CCC5(CC4)CNCC(F)(F)O5)cc(Br)cc3[N+](=O)[O-])C2)c1 [Example 338] was 10 to 50 nM

Note to self: IC50 recorded for O=C(c1cc(Br)cc([N+](=O)[O-])c1N[C@@H]1CCCN(C(=O)C2CNCC(F)(F)C2)C1)N1CCOC(F)(F)C1 (stereo in doubt) [Example 327] was 10 to 50 nM

Note to self: IC50 recorded for CNc1cncc(C(=O)N2C[C@H](Nc3c(C(=O)N4CCCCC4)cc(Br)cc3[N+](=O)[O-])C3(CC3)C2)c1 [Example 82] was 10 to 50 nM

Note to self: IC50 recorded for CNc1cncc(C(=O)N[C@H]2CCCC[C@H]2Nc2c(C(=O)N3C[C@@H](C)O[C@H](C)C3)cc(Br)cc2[N+](=O)[O-])c1 [Example 223] was 10 to 50 nM

Note to self: IC50 recorded for Cc1c(Br)cncc1C(=O)N1CCC[C@@H](Nc2c(C(=O)N3CCCCC3)cc(Br)cc2[N+](=O)[O-])C1 [Example 46] was 10 to 50 nM

Note to self: IC50 recorded for C[C@@H]1CN(C(=O)c2cc(Br)cc([N+](=O)[O-])c2N[C@@H]2CCCN(C(=O)c3cc(=O)[nH]c4ccccc34)C2)C[C@H](C)O1 [Example 133] was 10 to 50 nM

Note to self: IC50 recorded for Cc1cc(C(=O)N2CC(Nc3c(C(=O)N4CCC5(CCCCC5)CC4)cc(Br)cc3[N+](=O)[O-])C(F)(F)C2)cc(=O)[nH]1 (stereo not shown) [Example 160] was 10 to 50 nM

Note to self: IC50 recorded for O=C(N[C@H]1CCCC[C@H]1Nc1c(C(=O)N2C[C@@H](O)CO2)cc(Br)cc1[N+](=O)[O-])c1cncc2cc(Cl)ccc12 [Example 122] was 10 to 50 nM

Note to self: IC50 recorded for C[C@@H]1CN(C(=O)c2cc(Br)cc([N+](=O)[O-])c2N[C@H]2CN(C(=O)c3cncc(Br)c3)CC2(C)C)C[C@@H](C)O1 [Example 220] was 50 to 100 nM

Note to self: IC50 recorded for CNc1cncc(C(=O)N2C[C@H](Nc3c(C(=O)N4CCCCC4)cc(Br)cc3[N+](=O)[O-])C(C)(O)C2)c1 (stereo partly shown) [Example 245] was 50 to 100 nM

Note to self: IC50 recorded for CNc1cncc(C(=O)N2CCC[C@@H](Nc3c(C(=O)N4Cc5cccnc5C4)cc(Br)cc3[N+](=O)[O-])C2)c1 [Example 271] was 10 to 50 nM

Note to self: IC50 recorded for CNc1cncc(C(=O)N2C[C@H](Nc3c(C(=O)N4C[C@@H](C)O[C@@H](C)C4)cc(Br)cc3[N+](=O)[O-])C[C@H]2C(=O)NCc2ccnc(NC)c2)c1 [Example 430] was 100 to 200 nM

Note to self: IC50 recorded for CO[C@H]1CN(C(=O)c2cncc3[nH]nnc23)C[C@@H]1Nc1c(C(=O)N2C[C@@H](C)O[C@@H](C)C2)cc(Br)cc1[N+](=O)[O-] [Example 454] was 10 to 50 nM

Note to self: IC50 recorded for CNc1cncc(C(=O)N2CCC[C@@H](Nc3c(C(=O)N4CCC[C@H](OC)C4)cc(Br)cc3[N+](=O)[O-])C2)c1 [Example 239] was 10 to 50 nM

Note to self: IC50 recorded for Cc1cc(C(=O)N2CC(Nc3c(C(=O)N4CCC(C)(C)CC4)cc(Br)cc3[N+](=O)[O-])C(F)(F)C2)cc(=O)[nH]1 (stereo not shown) [Example 155] was 50 to 100 nM

Note to self: IC50 recorded for O=C(c1cncc(Br)c1)N1CCC[C@@H](Nc2c(C(=O)N3CCCC3)cc(Br)cc2[N+](=O)[O-])C1 [Example 65] was 10 to 50 nM

Note to self: IC50 recorded for Cc1cc(C(=O)N2C[C@H](Nc3c(C(=O)N4CCN(CC(F)(F)F)CC4)cc(Br)cc3[N+](=O)[O-])C3(CC3)C2)cc(=O)[nH]1 [Example 90] was 10 to 50 nM

Note to self: IC50 recorded for CNc1cncc(C(=O)N2C[C@H](Nc3c(C(=O)N4CCN(CCOC)CC4)cc(Br)cc3[N+](=O)[O-])C(C)(O)C2)c1 (stereo partly shown) [Example 318] was 10 to 50 nM

Note to self: IC50 recorded for O=C(c1cncc(Br)c1)N1C[C@H](Nc2c(C(=O)N3CCCCC3)cc(Br)cc2[N+](=O)[O-])C(F)(F)C1 [Example 197] was 10 to 50 nM

Note to self: IC50 recorded for CNc1cncc(C(=O)N2C[C@H](Nc3c(C(=O)N4C[C@@H](C)O[C@@H](C)C4)cc(Br)cc3[N+](=O)[O-])C[C@H]2C(=O)N[C@H]2CC[C@@H](OC)C2)c1 [Example 434] was 100 to 200 nM

Note to self: IC50 recorded for O=C(N[C@H]1CCOC[C@H]1Nc1c(C(=O)N2CCCCC2)cc(Br)cc1[N+](=O)[O-])c1cncc2cc(Cl)ccc12 [Example 184] was < 10 nM

Note to self: IC50 recorded for CNc1cncc(C(=O)N2CCC[C@@H](Nc3c(C(=O)N4CC[C@H](OC)C4)cc(Br)cc3[N+](=O)[O-])C2)c1 [Example 244] was 10 to 50 nM

###

Exercise: for every item that follows, state its recorded IC50.
experimental.target: SARS-COV-2 3CLpro/Mpro protease (Severe acute respiratory syndrome coronavirus 2 (2019-nCoV) (SARS-CoV-2), UniProt P0DTD1)
test.details: Inhibitory effect on SARS-COV-2 3CLpro/Mpro protease by fluorescence resonance energy transfer
Format: biochemical
condition.set: activity intervals A-D, read-out: IC50 (nM), Inhibition on SARS-CoV-2 3CLpro/Mpro protease

Note to self: IC50 recorded for CNc1cncc(C(=O)N2C[C@H](Nc3c(C(=O)N4C[C@@H](C)O[C@@H](C)C4)cc(Br)cc3[N+](=O)[O-])C[C@H]2C#Cc2cnn(C)c2)c1 [Example 392] was 50 to 100 nM

Note to self: IC50 recorded for CNc1cncc(C(=O)N2CCC[C@@H](Nc3c(C(=O)N4Cc5cnn(C)c5C4)cc(Br)cc3[N+](=O)[O-])C2)c1 [Example 284] was 10 to 50 nM

Note to self: IC50 recorded for C[C@@H]1CN(C(=O)c2cc(Br)cc(C(F)(F)F)c2N[C@@H]2CCOC[C@@H]2NC(=O)c2cncc3ccccc23)C[C@H](C)O1 [Example 210] was 10 to 50 nM

Note to self: IC50 recorded for C=C1CNCC(C(=O)N2CCC[C@@H](Nc3c(C(=O)N4CCCCC4)cc(Br)cc3[N+](=O)[O-])C2)C1 (stereo partly drawn) [Example 324] was 100 to 200 nM

Note to self: IC50 recorded for C[C@@H]1CN(C(=O)c2cc(Br)cc([N+](=O)[O-])c2N[C@@H]2CCCN(C(=O)c3cncc4[nH]ncc34)C2)C[C@H](C)O1 [Example 144] was 10 to 50 nM

Note to self: IC50 recorded for O=C(c1cc(Br)cc([N+](=O)[O-])c1N[C@@H]1CCCN(C(=O)c2cc(=O)[nH]c3ccccc23)C1)N1CCOCC1 [Example 119] was 10 to 50 nM

###

experimental.target: SARS-COV-2 3CLpro/Mpro protease (Severe acute respiratory syndrome coronavirus 2 (2019-nCoV) (SARS-CoV-2), UniProt P0DTD1)
test.details: Inhibitory effect on SARS-COV-2 3CLpro/Mpro protease by fluorescence resonance energy transfer
Assay type: biochemical
condition.set: activity intervals A-D, read-out: IC50 (nM), Inhibition on SARS-CoV-2 3CLpro/Mpro protease
Exercise: for every item that follows, state its recorded IC50.

Note to self: IC50 recorded for CNc1cncc(C(=O)N2CCC[C@@H](Nc3c(C(=O)N4CCn5cccc5C4)cc(Br)cc3[N+](=O)[O-])C2)c1 was 10 to 50 nM

Note to self: IC50 recorded for CNc1cncc(C(=O)N2CCC[C@@H](Nc3c(C(=O)N4CCc5ncsc5C4)cc(Br)cc3[N+](=O)[O-])C2)c1 was 10 to 50 nM

Note to self: IC50 recorded for CNc1cncc(C(=O)N2C[C@H](Nc3c(C(=O)N4C[C@@H](C)O[C@@H](C)C4)cc(Br)cc3[N+](=O)[O-])C[C@H]2C(=O)NCCOC)c1 was 50 to 100 nM

Note to self: IC50 recorded for CNc1cncc(C(=O)N[C@H]2CCCC[C@H]2Nc2c(C(=O)N3CCO[C@H](C)C3)cc(Br)cc2[N+](=O)[O-])c1 was 10 to 50 nM

Note to self: IC50 recorded for CNc1cncc(C(=O)N2CCC[C@@H](Nc3c(C(=O)N4CC5CCC(C4)O5)cc(Br)cc3[N+](=O)[O-])C2)c1 was 10 to 50 nM

Note to self: IC50 recorded for O=C(c1cncc(Br)c1)N1CC(Nc2c(C(=O)N3CCC(F)(F)CC3)cc(Br)cc2[N+](=O)[O-])C(F)(F)C1 (stereo not drawn) was 10 to 50 nM
